Just for reference, PubChem BioAssay (NCATS) is where these values come from.

# ASSAY_TEXT: Quantitative High-Throughput drug screen in 47 multiple myeloma cell lines against the NCATS MIPE library collection: AMO1_DSMZ cell viability assay (AID 1918927; also: potency is read from the fitted curve at half-maximal effect; nearly all actives have a fitted effect of over 30% in size)
# CONDITION_SUMMARY: AMO1 myeloma cells viability, CellTiter-Glo ATP luminescence, 48 h; series mostly up to 45.8 µM
Records with an inconclusive call do not appear. Calls of active or inactive are those of the source. Calls follow the shape of the dose curve; as a rule, active = well fitted cell-killing curve with a large enough effect; inconclusive = small, poorly fitted or top-dose-only effect, or effect the other way; inactive = no such curve, though single readings can be large or run the other way.
PARAMETER_MEASURED: Potency

[[record]]
compound = "Cc1nc(Nc2n[nH]c3c2CN(C(=O)N[C@H](CN(C)C)c2ccccc2)C3(C)C)c2sccc2n1"
parameter_measured = "Potency"
data_value = "74.3 nM (active)"

[[record]]
compound = "CCn1cc(-c2ccnc3[nH]c(-c4cccc(CN(C)C)c4)cc23)c(-c2ccc(NC(=O)N(C)C)cc2)n1"
parameter_measured = "Potency"
data_value = "5260 nM (active)"

[[record]]
compound = "Cc1c(CN2CCN(S(C)(=O)=O)CC2)sc2c(N3CCOCC3)nc(-c3cnc(N)nc3)nc12"
parameter_measured = "Potency"
data_value = "93.5 nM (active)"

[[record]]
compound = "Cc1cc(Nc2cc(N3CCN(C)CC3)nc(C=Cc3ccccc3)n2)n[nH]1"
parameter_measured = "Potency"
data_value = "8550 nM (active)"

[[record]]
compound = "O=C(O)C1(Cc2cccc(Nc3nccs3)n2)CCC(Oc2cccc(Cl)c2F)CC1 (stereo not given)"
parameter_measured = "Potency"
data_value = "235 nM (active)"


----------
# ASSAY_TEXT: qHTS profiling of the MIPE4 collection as inhibitors of Plasmodium falciparum (DD2) proliferation (Rep 2) (AID 743346)
# CONDITION_SUMMARY: P. falciparum Dd2 in erythrocytes, SYBR Green DNA, 72 h; at 28.5 µM (top of the series) unless noted
parasite growth, % of control (lower = inhibition) strictly under 20% means met; at 20% or over means not met.

[[record]]
molecule = "Cn1c2cc(S(C)=O)sc2c2cnn(Cc3cccc(N)c3)c(=O)c21 (configuration not stated)"
label_class = "not met"

[[record]]
molecule = "CCS(=O)(=O)c1cccc(-c2cc(C(=O)NC3CCN(C)CC3)c(C)c3[nH]c4ncc(C)cc4c23)c1"
label_class = "met"

[[record]]
molecule = "CCN(CC)CCCCNc1ncc2cc(-c3cc(OC)cc(OC)c3)c(NC(=O)NC(C)(C)C)nc2n1"
label_class = "met"

[[record]]
molecule = "CC(C)(C)NC(=O)[C@H]1CN(Cc2cccnc2)CCN1C[C@@H](O)C[C@@H](Cc1ccccc1)C(=O)N[C@H]1c2ccccc2C[C@H]1O"
label_class = "not met"

[[record]]
molecule = "O=C(Nc1ncc(-c2cc(C(F)F)nn2-c2c(Cl)cccc2Cl)s1)C1CC1"
label_class = "not met"

[[record]]
molecule = "O=C(Nc1cn[nH]c1-c1nc2ccc(CN3CCOCC3)cc2[nH]1)NC1CC1"
label_class = "met"

[[record]]
molecule = "Cc1coc2c1C(=O)C(=O)c1c-2ccc2c1CCCC2(C)C"
label_class = "not met"

[[record]]
molecule = "CC(C)(O)CCc1ccc(OCc2cc(-c3cccc(OC(F)F)c3)c3ncccc3c2)cc1"
label_class = "not met"

[[record]]
molecule = "O=C(O)CO.[NH2-].[NH2-].[Pt+2]"
label_class = "not met"

[[record]]
molecule = "CS(=O)(=O)c1ccc(-c2cnc(N)c(C(=O)Nc3ccccc3)n2)cc1"
label_class = "met"

[[record]]
molecule = "C=CCn1c(=O)c2cnc(Nc3ccc(N4CCN(C)CC4)cc3)nc2n1-c1cccc(C(C)(C)O)n1"
label_class = "not met"

[[record]]
molecule = "CC1COC2(CCN(c3nc(=O)c4cc(C(F)(F)F)cc([N+](=O)[O-])c4s3)CC2)O1 (configuration not stated)"
label_class = "not met"

[[record]]
molecule = "O=C(O)Cn1nnc(-c2cc(N3CCC(Oc4cc(F)ccc4Br)CC3)no2)n1"
label_class = "not met"

[[record]]
molecule = "O=C(O)C1(Cc2cccc(Nc3nccs3)n2)CCC(Oc2cccc(Cl)c2F)CC1 (configuration not stated)"
label_class = "not met"

[[record]]
molecule = "CC(=O)OCC(=O)[C@@]1(O)[C@H](C)C[C@H]2[C@@H]3C=C(C)C4=Cc5c(cnn5-c5ccccc5)C[C@]4(C)[C@@H]3[C@@H](O)C[C@@]21C"
label_class = "not met"

[[record]]
molecule = "Cc1cnc(-c2cnc(NCCNc3ccc(C#N)cn3)nc2-c2ccc(Cl)cc2Cl)[nH]1"
label_class = "not met"

[[record]]
molecule = "C[C@@H]1COC(Nc2ccc3ncnc(Nc4ccc(OCc5nccs5)c(Cl)c4)c3c2)=N1"
label_class = "not met"

[[record]]
molecule = "c1nc2nc(Nc3ccc(N4CCOCC4)cc3)nc(NC3CCCCC3)c2[nH]1"
label_class = "met"

[[record]]
molecule = "C=CC(=O)Nc1cccc(Oc2nc(Nc3ccc(N4CCN(C)CC4)cc3OC)ncc2Cl)c1"
label_class = "not met"

[[record]]
molecule = "Cc1cc(N2CCOCC2)cc2[nH]c(-c3c(NC[C@@H](O)c4cccc(Cl)c4)cc[nH]c3=O)nc12"
label_class = "met"

[[record]]
molecule = "Cc1nc(Nc2n[nH]c3c2CN(C(=O)N[C@H](CN(C)C)c2ccccc2)C3(C)C)c2sccc2n1"
label_class = "met"

[[record]]
molecule = "COc1ccc(CC2SC(=O)NC2=O)cc1C(=O)NCc1ccc(C(F)(F)F)cc1 (configuration not stated)"
label_class = "not met"

[[record]]
molecule = "CNC(=O)c1ccccc1Nc1nc(Nc2ccc(N3CCOCC3)cc2OC)ncc1Cl"
label_class = "not met"

[[record]]
molecule = "O=C(CCCCCCC(=O)Nc1ccc([C@H]2O[C@@H](CSc3nc(-c4ccccc4)c(-c4ccccc4)o3)C[C@@H](c3ccc(CO)cc3)O2)cc1)NO"
label_class = "met"

[[record]]
molecule = "COc1ccc(-n2nc(C(N)=O)c3c2C(=O)N(c2ccc(N4CCCCC4=O)cc2)CC3)cc1"
label_class = "not met"

[[record]]
molecule = "CC(=O)OCCN1C(=O)c2c(C)nc3ccc(S(=O)(=O)N4CCOCC4)cc3c2C1=O"
label_class = "not met"

[[record]]
molecule = "O=C(NCCCNc1nc(Nc2cccc(NC(=O)N3CCCC3)c2)ncc1I)c1cccs1"
label_class = "not met"

[[record]]
molecule = "NC1(Cc2ccc(Cl)cc2)CCN(c2ncnc3[nH]ccc23)CC1"
label_class = "not met"

[[record]]
molecule = "CC(C)c1cc(C(=O)N2Cc3ccc(CN4CCN(C)CC4)cc3C2)c(O)cc1O"
label_class = "met"

[[record]]
molecule = "CC1(O)CC(c2nc(-c3ccc4ccc(-c5ccccc5)nc4c3)c3c(N)nccn23)C1 (configuration not stated)"
label_class = "met"

[[record]]
molecule = "CCCCc1nc2cc(C=CC(=O)NO)ccc2n1CCN(CC)CC"
label_class = "met"

[[record]]
molecule = "Nc1nccc(Oc2ccc(NC(=O)c3c[nH]cc(-c4ccc(F)cc4)c3=O)cc2F)c1Cl"
label_class = "met"


----------
# ASSAY_TEXT: Quantitative High-Throughput drug screen in 47 multiple myeloma cell lines against the NCATS MIPE library collection: U266_ATCC cell viability assay (AID 1919864); also: nearly all actives have a fitted effect of over 35% in size
# CONDITION_SUMMARY: U266 myeloma viability, CellTiter-Glo ATP luminescence, 48 h; series mostly up to 45.8 µM
Inconclusive results are not listed. Calls of active or inactive are those of the source. Calls come from the whole dose curve; as a rule, active = well fitted cell-killing curve with a large enough effect; inconclusive = small, poorly fitted or top-dose-only effect, or effect the other way; inactive = no such curve, though single readings can be large or run the other way.
Possible outcomes: T for active, F for inactive

[[record]]
molecule = "NCC(=O)Nc1ccc(-n2nc(C(F)(F)F)cc2-c2ccc3c(ccc4ccccc43)c2)cc1"
label_class = "T"

[[record]]
molecule = "O=C(Nc1cc(C(F)(F)F)cc(C(F)(F)F)c1)c1cc(Cl)ccc1O"
label_class = "T"

[[record]]
molecule = "Cn1c2ccccc2c2c3c(c4c5ccccc5n(CCC#N)c4c21)CNC3=O"
label_class = "T"

[[record]]
molecule = "Cc1c(CN2CCN(S(C)(=O)=O)CC2)sc2c(N3CCOCC3)nc(-c3cnc(N)nc3)nc12"
label_class = "T"

[[record]]
molecule = "COC(=O)C1=C(C)NC(C)=C(C(=O)OCCN2CCN(C(c3ccccc3)c3ccccc3)CC2)C1c1cccc([N+](=O)[O-])c1 (stereo unspecified)"
label_class = "F"

[[record]]
molecule = "Nc1ccccc1NC(=O)c1ccc(CNc2nccc(-c3cccnc3)n2)cc1"
label_class = "T"


----------
# ASSAY_TEXT: Quantitative High-Throughput drug screen in 47 multiple myeloma cell lines against the NCATS MIPE library collection: Delta47_JCRB cell viability assay (AID 1918925; also: potency is read from the fitted curve at half-maximal effect; nearly all actives have a fitted effect of over 45% in size)
# CONDITION_SUMMARY: Delta47 myeloma viability, CellTiter-Glo ATP, 48 h; series mostly up to 45.8 µM
Records with an inconclusive call do not appear. The source made the active and inactive calls. Calls come from the whole dose curve; as a rule, active = well fitted cell-killing curve with a large enough effect; inconclusive = small, poorly fitted or top-dose-only effect, or effect the other way; inactive = no such curve, though single readings can be large or run the other way.
# maps each entry to its Potency
PARAMETER_MEASURED: Potency

[[record]]
smiles_repr = "O=C(Nc1cc(C(F)(F)F)cc(C(F)(F)F)c1)c1cc(Cl)ccc1O"
parameter_measured = "Potency"
data_value = "1870 nM (active)"

[[record]]
smiles_repr = "NCC(=O)Nc1ccc(-n2nc(C(F)(F)F)cc2-c2ccc3c(ccc4ccccc43)c2)cc1"
parameter_measured = "Potency"
data_value = "18700 nM (active)"

[[record]]
smiles_repr = "Cc1cc(C(=O)N2CCN(c3cccc(Cl)c3)CC2)n(-c2ccccc2)n1"
parameter_measured = "Potency"
data_value = "833 nM (active)"

[[record]]
smiles_repr = "CCn1nnc2c(N3CCOCC3)nc(-c3ccc(NC(=O)Nc4ccc(C(=O)N5CCN(C)CC5)cc4)cc3)nc21"
parameter_measured = "Potency"
data_value = "13.2 nM (active)"

[[record]]
smiles_repr = "c1cc(-c2cnn3cc(-c4ccc(OCCN5CCCCC5)cc4)cnc23)ccn1"
parameter_measured = "Potency"
data_value = "2090 nM (active)"

[[record]]
smiles_repr = "CN(C)CC=CC(=O)Nc1cc2c(Nc3ccc(F)c(Cl)c3)ncnc2cc1O[C@H]1CCOC1"
parameter_measured = "Potency"
data_value = "3720 nM (active)"

[[record]]
smiles_repr = "c1ccc2c(CCNc3ccc(Nc4ccncc4)cc3)c[nH]c2c1"
parameter_measured = "Potency"
data_value = "18700 nM (active)"

[[record]]
smiles_repr = "COc1cc2c(Oc3ccc(-c4cnc(Nc5ccc(F)cc5)n(C)c4=O)cc3F)ccnc2cc1OCCCN1CCOCC1"
parameter_measured = "Potency"
data_value = "935 nM (active)"

